Molecular target: Protein deacetylase HDAC6 (Homo sapiens)
Sequence (Q9UBN7 whole entry): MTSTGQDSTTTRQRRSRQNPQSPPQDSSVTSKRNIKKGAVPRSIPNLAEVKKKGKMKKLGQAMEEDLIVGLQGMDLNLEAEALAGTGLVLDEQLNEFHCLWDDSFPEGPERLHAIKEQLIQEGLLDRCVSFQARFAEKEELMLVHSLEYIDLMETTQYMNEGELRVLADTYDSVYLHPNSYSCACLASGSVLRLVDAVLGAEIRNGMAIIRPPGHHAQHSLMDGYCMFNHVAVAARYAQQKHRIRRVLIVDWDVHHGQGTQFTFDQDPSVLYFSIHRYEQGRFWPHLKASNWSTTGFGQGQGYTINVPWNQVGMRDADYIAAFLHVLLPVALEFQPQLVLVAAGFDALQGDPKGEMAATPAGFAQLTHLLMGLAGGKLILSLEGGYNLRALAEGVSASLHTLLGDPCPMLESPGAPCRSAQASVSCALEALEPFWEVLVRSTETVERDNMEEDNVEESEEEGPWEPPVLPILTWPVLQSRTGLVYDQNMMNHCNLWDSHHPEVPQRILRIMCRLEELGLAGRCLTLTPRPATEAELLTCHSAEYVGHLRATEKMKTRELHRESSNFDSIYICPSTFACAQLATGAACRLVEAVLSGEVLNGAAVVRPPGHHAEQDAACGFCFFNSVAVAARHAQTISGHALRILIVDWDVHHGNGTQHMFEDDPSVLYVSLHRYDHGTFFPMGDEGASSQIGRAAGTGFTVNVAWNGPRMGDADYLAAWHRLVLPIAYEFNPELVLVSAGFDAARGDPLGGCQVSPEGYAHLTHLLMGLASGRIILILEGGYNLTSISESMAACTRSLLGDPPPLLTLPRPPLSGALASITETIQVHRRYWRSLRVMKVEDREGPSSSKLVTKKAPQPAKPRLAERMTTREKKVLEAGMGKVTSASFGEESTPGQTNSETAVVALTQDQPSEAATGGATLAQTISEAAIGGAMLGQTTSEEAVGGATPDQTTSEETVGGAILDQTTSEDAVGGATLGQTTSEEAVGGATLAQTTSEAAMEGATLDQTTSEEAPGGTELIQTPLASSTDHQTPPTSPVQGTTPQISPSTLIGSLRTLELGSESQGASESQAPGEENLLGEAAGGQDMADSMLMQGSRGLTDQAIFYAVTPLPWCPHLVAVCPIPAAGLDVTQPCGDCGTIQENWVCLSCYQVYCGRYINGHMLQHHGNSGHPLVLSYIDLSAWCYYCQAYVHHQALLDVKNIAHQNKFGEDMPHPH
Experiment: Inhibition of recombinant full length C-terminal FLAG-tagged human HDAC6 expressed in baculovirus infected Sf9 cells using Boc-Lys(Ac)-AMC as substrate preincubated for 15 mins followed by substrate addition and measured after 60 mins by fluorescence based assay
readout.name: pIC50
As a rule, pIC50 stands for the negative log10 of the concentration, concentration in M.

                               entry_smiles  reported
0  O=C(CCCCNC(=O)/C(Cc1ccc(O)c(Br)c1)=N/O)NO      5.89

API: the following record is the query input.
Query: With Protein deacetylase HDAC6 (Homo sapiens) as the test system, provide measured pIC50 for this molecule: O=C(NCCSSCCNC(=O)/C(Cc1ccc(O)c(Br)c1)=N/O)/C(Cc1ccc(O)c(Br)c1)=N/O
Reply: 6.51

---

Test: Toxicity in mouse LL/2 cells inoculated C57BL/6J mouse assessed as effect on body weight by measuring initial body weight at 25 mg/kg, ip administered for 12 days measured for every 2 days (reference value: 18.4 +/- 0.4 g)
Format: organism-based
Settings: in vivo, 288 h, time 12 day
readout.name: Activity (g)
Respond with the bare value in g.

# count of solved cases: 3
>>> df
                                   molecule  reading_unit  reported
0   O=C(CCNC(=O)/C(Cc1ccc(O)c(Br)c1)=N/O)NO             g      18.9
1  O=C(NCCSSCCNC(=O)/C(Cc1ccc(O)c(Br)c1)=N/O)/C(Cc1ccc(O)c(Br)c1)=N/O [PSAMMAPLIN A]             g      18.2
2  O=C(CCCCCCC(=O)Nc1ccccc1)NO [VORINOSTAT]             g      17.9

Attention now shifts to the item below.
Query: Indicate its recorded Activity; the molecule in question is O=C(NCCS)/C(Cc1ccc(O)c(Br)c1)=N/O
Reply: 18.5

---

Biological target: Histone deacetylase 1 (Homo sapiens)
Sequence (Q13547 whole entry): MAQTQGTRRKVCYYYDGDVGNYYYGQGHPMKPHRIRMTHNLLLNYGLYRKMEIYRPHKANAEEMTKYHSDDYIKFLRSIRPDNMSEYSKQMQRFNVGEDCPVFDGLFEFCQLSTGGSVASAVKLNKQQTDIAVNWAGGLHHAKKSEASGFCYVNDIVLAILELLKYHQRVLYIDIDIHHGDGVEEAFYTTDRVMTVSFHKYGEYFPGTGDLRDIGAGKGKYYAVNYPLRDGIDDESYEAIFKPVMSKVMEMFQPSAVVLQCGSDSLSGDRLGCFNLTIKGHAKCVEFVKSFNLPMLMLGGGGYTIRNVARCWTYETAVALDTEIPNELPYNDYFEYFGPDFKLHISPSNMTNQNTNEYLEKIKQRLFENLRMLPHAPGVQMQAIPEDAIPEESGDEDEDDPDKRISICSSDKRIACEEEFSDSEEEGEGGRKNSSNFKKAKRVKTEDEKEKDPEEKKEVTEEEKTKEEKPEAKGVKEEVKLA
Experiment: Inhibition of recombinant full length C-terminal FLAG/His-tagged human HDAC1 expressed in baculovirus infected Sf9 cells using Boc-Lys(Ac)-AMC as substrate preincubated for 15 mins followed by substrate addition and measured after 60 mins by fluorescence based assay
// returns label 0 unless IC50 is strictly below 400 nM, in which case label 1

>>> print(df.to_string())
                               entry_smiles  group_label
0  Nc1ccccc1NC(=O)CNC(=O)/C(Cc1ccc(O)c(Br)c1)=N/O      label 0
1    O=C(CNC(=O)/C(Cc1ccc(O)c(Br)c1)=N/O)NO      label 0
2  O=C(CCCNC(=O)/C(Cc1ccc(O)c(Br)c1)=N/O)NO      label 0

Query: In the record for Nc1ccccc1NC(=O)CCNC(=O)/C(Cc1ccc(O)c(Br)c1)=N/O , is IC50 less than 400 nM?
Reply: label 0

Query: State whether 400 nM exceeds IC50 recorded for Nc1ccccc1NC(=O)CCCCCCNC(=O)/C(Cc1ccc(O)c(Br)c1)=N/O .
Reply: label 0

Query: For this compound, is IC50 lower than 400 nM? O=C(CCNC(=O)/C(Cc1ccc(O)c(Br)c1)=N/O)NO
Reply: label 1

Query: Given the entry O=C(NCCS)/C(Cc1ccc(O)c(Br)c1)=N/O , would its reported IC50 be below 400 nM?
Reply: label 1

Query: Please let me know if CCCNC(=O)/C(Cc1ccc(O)c(Br)c1)=N/O shows IC50 below 400 nM.
Reply: label 0
